Below, each entry is listed with its recorded SAGPY herbicidal rating.
- Test system: Sagittaria pygmaea, L.
- ASSAY_INFO: Preemergence weed control under flooded paddy conditions, SAGPY (Arrowhead (Pygmaea))
- Assay type: in vivo
- MEASUREMENT_CONTEXT: 0.0320 kg/ha; preemergence, flooded paddy; rated three to four weeks after treatment
MEASUREMENT_KIND: SAGPY herbicidal rating

> print(dat)
                              line.notation             system.name  quantitative.readout
1  COC(=O)C(C)(C)c1nsc2ccc(-n3c(=O)cc(C(F)(F)F)n(C)c3=O)cc12  Sagittaria pygmaea, L.                   6.0
2  COC(CCOc1ccc(C)cc1-c1nsc2ccc(-n3c(=O)cc(C(F)(F)F)n(C)c3=O)cc12)OC  Sagittaria pygmaea, L.                   0.0
3  Cn1c(C(F)(F)F)cc(=O)n(-c2ccc3snc(COC(=O)c4ccc([N+](=O)[O-])o4)c3c2)c1=O  Sagittaria pygmaea, L.                   0.0
4  Cn1c(C(F)(F)F)cc(=O)n(-c2ccc3snc(COC(=O)c4ccno4)c3c2)c1=O  Sagittaria pygmaea, L.                   0.0
5  Cn1c(C(F)(F)F)cc(=O)n(-c2ccc3snc(COC(=O)c4ccco4)c3c2)c1=O  Sagittaria pygmaea, L.                   0.0
6  COC(=O)c1nsc2cc(F)c(-n3c(=O)cc(C(F)(F)F)n(C)c3=O)cc12  Sagittaria pygmaea, L.                   9.0
7  Cn1c(C(F)(F)F)cc(=O)n(-c2ccc3snc(C(=O)NS(N)(=O)=O)c3c2)c1=O  Sagittaria pygmaea, L.                   0.0
8  COCC(=O)OCc1nsc2ccc(-n3c(=O)cc(C(F)(F)F)n(C)c3=O)cc12  Sagittaria pygmaea, L.                   0.0

---

Below, each entry is listed with its recorded herbicidal effect rating, CYPIR.
- System: Cyperus iria
- ASSAY_INFO: Postemergence weed control under flooded paddy conditions, CYPIR (Rice Flatsedge)
- Type: in vivo
- MEASUREMENT_CONTEXT: Rate 0.1250 kg/ha, rated three to four weeks after treatment
MEASUREMENT_KIND: herbicidal effect rating, CYPIR

> print(dat)
                                   molecule  quantitative.readout
1  CC(C)S(=O)(=O)NC(=O)c1nsc2ccc(-n3c(=O)cc(C(F)(F)F)n(C)c3=O)cc12                   8.0
2  CCOc1cccc(-c2nsc3ccc(-n4c(=O)cc(C(F)(F)F)n(C)c4=O)cc23)c1                   9.0
3  COc1ccc(I)cc1-c1nsc2ccc(-n3c(=O)cc(C(F)(F)F)n(C)c3=O)cc12                   7.0
4  COc1cc2c(cc1-c1nsc3ccc(-n4c(=O)cc(C(F)(F)F)n(C)c4=O)cc13)CCC2                   9.0
5  COC(=O)C(C)Oc1ccc(C)cc1-c1nsc2ccc(-n3c(=O)cc(C(F)(F)F)n(C)c3=O)cc12 (stereo not shown)                   9.0
6  C#CCOC(=O)C(C)(C)Oc1ccc(C)cc1-c1nsc2ccc(-n3c(=O)cc(C(F)(F)F)n(C)c3=O)cc12                   6.0
7  CCCCC(=O)c1nsc2ccc(-n3c(=O)cc(C(F)(F)F)n(C)c3=O)cc12                   9.0

---

- Test system: Echinochloa oryzoides (Ard.) Fritsch.
- ASSAY_INFO: Preemergence weed control under flooded paddy conditions, ECHORC (Watergrass (Calif.))
- Format: in vivo
- MEASUREMENT_CONTEXT: 0.0320 kg/ha; preemergence, flooded paddy; rated three to four weeks after treatment
Below, each entry is listed with its recorded ECHORC herbicidal rating.
MEASUREMENT_KIND: ECHORC herbicidal rating

> print(dat)
                                   compound                            system.name          measurement.kind  quantitative.readout
1  Cc1cccc(CS(=O)(=O)NC(=O)c2nsc3ccc(-n4c(=O)cc(C(F)(F)F)n(C)c4=O)cc23)c1  Echinochloa oryzoides (Ard.) Fritsch.  ECHORC herbicidal rating                   6.0
2  COC(=O)C(C)Oc1cc(Cl)c(C)cc1-c1nsc2ccc(-n3c(=O)cc(C(F)(F)F)n(C)c3=O)cc12 (stereo not shown)  Echinochloa oryzoides (Ard.) Fritsch.  ECHORC herbicidal rating                   4.0
3  COC(=O)C(C)Oc1ccc(I)cc1-c1nsc2ccc(-n3c(=O)cc(C(F)(F)F)n(C)c3=O)cc12 (stereo not shown)  Echinochloa oryzoides (Ard.) Fritsch.  ECHORC herbicidal rating                   6.0
4  COc1cc(Cl)c(C)cc1-c1nsc2ccc(-n3c(=O)cc(C(F)(F)F)n(C)c3=O)cc12  Echinochloa oryzoides (Ard.) Fritsch.  ECHORC herbicidal rating                   7.5

---

- Test system: Echinochloa oryzoides (Ard.) Fritsch.
- ASSAY_INFO: Preemergence weed control under flooded paddy conditions, ECHORC (Watergrass (Calif.))
- Type: in vivo
- MEASUREMENT_CONTEXT: 0.0320 kg/ha; preemergence weeds, flooded paddy; herbicidal effect rating 0-9, three to four weeks after treatment
MEASUREMENT_KIND: ECHORC

> print(dat)
                                   molecule  quantitative.readout
1  COc1ccc(I)cc1-c1nsc2ccc(-n3c(=O)cc(C(F)(F)F)n(C)c3=O)cc12 [Example 448]                   9.0
2  COc1cccc(CC(=O)OCc2nsc3ccc(-n4c(=O)cc(C(F)(F)F)n(C)c4=O)cc23)c1 [Example 454]                   3.0
3  COc1ccc(CC(=O)OCc2nsc3ccc(-n4c(=O)cc(C(F)(F)F)n(C)c4=O)cc23)cc1 [Example 450]                   0.0
4  COC(=O)C(C)Oc1cc2c(cc1-c1nsc3ccc(-n4c(=O)cc(C(F)(F)F)n(C)c4=O)cc13)CCC2 (centres unmarked) [Example 435]                   5.0
5  Cc1ccsc1C=C(C#N)c1nsc2ccc(-n3c(=O)cc(C(F)(F)F)n(C)c3=O)cc12 [Example 457]                   5.0
6  Cn1c(C(F)(F)F)cc(=O)n(-c2ccc3snc(C(=O)NS(=O)(=O)Cc4ccc(OC(F)(F)F)cc4)c3c2)c1=O [Example 406]                   6.0
7  Cn1c(C(F)(F)F)cc(=O)n(-c2ccc3snc(C(=O)NS(=O)(=O)Cc4ccc(C(C)(C)C)cc4)c3c2)c1=O [Example 405]                   7.0
8  CCSC(=O)c1nsc2ccc(-n3c(=O)cc(C(F)(F)F)n(C)c3=O)cc12 [Example 422]                   5.0

---

- Test system: Cyperus serotinus, Rottb.
- ASSAY_INFO: Preemergence weed control under flooded paddy conditions, CYPSE (Flatsedge); further: meaning of each grade not given here
- Format: in vivo
- MEASUREMENT_CONTEXT: Rate 0.0620 kg/ha, preemergence, rated three to four weeks after treatment
YES if herbicidal effect rating, CYPSE is below 2. NO if not; exact matches included in NO.

> print(dat)
                                    molecule                system.name  class
 1  CCS(=O)(=O)NC(=O)C(C)Oc1ccc(C)cc1-c1nsc2ccc(-n3c(=O)cc(C(F)(F)F)n(C)c3=O)cc12 (centres unmarked)  Cyperus serotinus, Rottb.    YES
 2  Cn1c(C(F)(F)F)cc(=O)n(-c2ccc3snc(COCc4cccc([N+](=O)[O-])c4)c3c2)c1=O  Cyperus serotinus, Rottb.    YES
 3  CC(C)S(=O)(=O)NC(=O)c1nsc2ccc(-n3c(=O)cc(C(F)(F)F)n(C)c3=O)cc12  Cyperus serotinus, Rottb.     NO
 4  C#CCC(C#N)(CC#C)c1nsc2ccc(-n3c(=O)cc(C(F)(F)F)n(C)c3=O)cc12  Cyperus serotinus, Rottb.    YES
 5  C=CCC(C#N)(CC=C)c1nsc2ccc(-n3c(=O)cc(C(F)(F)F)n(C)c3=O)cc12  Cyperus serotinus, Rottb.     NO
 6  Cn1c(C(F)(F)F)cc(=O)n(-c2ccc3snc(COC(=O)Cc4ccccc4)c3c2)c1=O  Cyperus serotinus, Rottb.     NO
 7  Cn1c(C(F)(F)F)cc(=O)n(-c2ccc3snc(COC(=O)Nc4ccccc4)c3c2)c1=O  Cyperus serotinus, Rottb.    YES
 8  CN(O)C(=O)c1nsc2ccc(-n3c(=O)cc(C(F)(F)F)n(C)c3=O)cc12  Cyperus serotinus, Rottb.    YES
 9  Cn1c(C(F)(F)F)cc(=O)n(-c2ccc3snc(COCc4ccc(Cl)cc4)c3c2)c1=O  Cyperus serotinus, Rottb.    YES
10  Cc1ccc(OC(C)C(=O)NS(=O)(=O)C(C)C)c(-c2nsc3ccc(-n4c(=O)cc(C(F)(F)F)n(C)c4=O)cc23)c1 (centres unmarked)  Cyperus serotinus, Rottb.    YES
11  Cn1c(C(F)(F)F)cc(=O)n(-c2ccc3snc(C(=O)NCC(=O)O)c3c2)c1=O  Cyperus serotinus, Rottb.    YES
12  C=CCOC(C)c1nsc2ccc(-n3c(=O)cc(C(F)(F)F)n(C)c3=O)cc12 (centres unmarked)  Cyperus serotinus, Rottb.     NO
13  Cn1c(C(F)(F)F)cc(=O)n(-c2ccc3snc(C(=O)NS(=O)(=O)c4ccc5ccccc5c4)c3c2)c1=O  Cyperus serotinus, Rottb.    YES
14  COC(=O)COc1ccc(C)cc1-c1noc2cc(F)c(-n3c(=O)cc(C(F)(F)F)n(C)c3=O)cc12  Cyperus serotinus, Rottb.     NO
15  Cn1c(C(F)(F)F)cc(=O)n(-c2ccc3snc(COC(=O)Cc4ccc(Cl)cc4Cl)c3c2)c1=O  Cyperus serotinus, Rottb.    YES
16  Cn1c(C(F)(F)F)cc(=O)n(-c2ccc3snc(C(=O)NS(=O)(=O)c4ccc(Cl)cc4)c3c2)c1=O  Cyperus serotinus, Rottb.    YES
17  Cn1c(C(F)(F)F)cc(=O)n(-c2ccc3snc(COC(=O)CCl)c3c2)c1=O  Cyperus serotinus, Rottb.     NO
18  Cn1c(C(F)(F)F)cc(=O)n(-c2cc3c(CBr)nsc3cc2F)c1=O  Cyperus serotinus, Rottb.     NO
19  CN(C(=O)c1nsc2ccc(-n3c(=O)cc(C(F)(F)F)n(C)c3=O)cc12)c1ccc(Cl)cc1  Cyperus serotinus, Rottb.     NO
20  Cn1c(C(F)(F)F)cc(=O)n(-c2ccc3snc(C(=O)NS(=O)(=O)c4cccs4)c3c2)c1=O  Cyperus serotinus, Rottb.    YES
21  Cn1c(C(F)(F)F)cc(=O)n(-c2ccc3snc(C#N)c3c2)c1=O  Cyperus serotinus, Rottb.     NO
22  CC(C)S(=O)(=O)OCc1nsc2ccc(-n3c(=O)cc(C(F)(F)F)n(C)c3=O)cc12  Cyperus serotinus, Rottb.    YES
23  COCc1nsc2cc(F)c(-n3c(=O)cc(C(F)(F)F)n(C)c3=O)cc12  Cyperus serotinus, Rottb.     NO
24  CCSCCOC(=O)c1nsc2ccc(-n3c(=O)cc(C(F)(F)F)n(C)c3=O)cc12  Cyperus serotinus, Rottb.     NO
25  CC(=O)OCCOC(=O)COc1ccc(C)cc1-c1nsc2ccc(-n3c(=O)cc(C(F)(F)F)n(C)c3=O)cc12  Cyperus serotinus, Rottb.     NO
26  C=CCONC(=O)c1nsc2ccc(-n3c(=O)cc(C(F)(F)F)n(C)c3=O)cc12  Cyperus serotinus, Rottb.    YES
27  Cn1c(C(F)(F)F)cc(=O)n(-c2ccc3snc(C(C#N)=Cc4ccncc4)c3c2)c1=O  Cyperus serotinus, Rottb.    YES
28  Cn1c(C(F)(F)F)cc(=O)n(-c2ccc3snc(C[S+]([O-])c4ccccc4)c3c2)c1=O (centres unmarked)  Cyperus serotinus, Rottb.    YES
29  Cn1c(C(F)(F)F)cc(=O)n(-c2ccc3snc(COC(=O)Cc4ccccc4Cl)c3c2)c1=O  Cyperus serotinus, Rottb.    YES
30  Cn1c(C(F)(F)F)cc(=O)n(-c2ccc3snc(C(C)(C)C(=O)OCc4ccccc4)c3c2)c1=O  Cyperus serotinus, Rottb.    YES
31  Cn1c(C(F)(F)F)cc(=O)n(-c2ccc3snc(C(C#N)(Cc4ccccc4)Cc4ccccc4)c3c2)c1=O  Cyperus serotinus, Rottb.    YES
